Data origin, for the record: PubChem BioAssay (NCI)

- System: PC-3 prostate
- TEST DESCRIPTION: NCI tumour cell line growth inhibition, 48 h
METRIC NAME: TGI

Worked examples, 8 molecules total:
• CCOC(=O)c1nc2ccc(C(F)(F)F)cc2nc1Nc1ccc(OC)c(OC)c1 = > 100 µM
• Clc1ccc(CSCc2ccc(Cl)cc2Cl)c(Cl)c1 = > 100 µM
• COc1ccc2oc(-c3ccc(Cl)cc3)c(N3CCN(C)CC3)c2c1 = 5.54 µM
• C=C1C(=O)O[C@H]2[C@H]3O[C@@H](C[C@@H]12)[C@](C)(O)CCCC(C)=CCC[C@H]3C = 25.7 µM
• CCNC(=O)Cc1nc2c(=O)[nH]cnc2n1C1OC(CO)C(O)C1O (stereo not drawn) = > 100 µM
• COc1cc(C2SC(N)=Nc3c2c(C)nn3C(=O)Cc2ccccc2)ccc1O (stereo not drawn) = > 100 µM
• Cc1nn(C(=O)c2ccncc2)c2c1C(c1ccccc1O)SC(N)=N2 (stereo not drawn) = > 10 µM
• CC(C)=CCC/C(C)=C/CC/C(C)=C/CC/C(C=O)=C/CC/C(C)=C\CC/C(C)=C/CC/C(C)=C/CC/C(C)=C/CC1=CC(=O)C=CC1=O = > 100 µM

Kindly note the recorded TGI for COc1cc2c(cc1C)NC(=O)/C2=C/c1c(C)nc2sc(C)cn12 , which is > 100 µM

Kindly note the recorded TGI for CC(C)C(/C=C/c1ccc(Cl)cc1)=N\NC(=S)NN , which is > 100 µM

Kindly note the recorded TGI for COc1ccc2c(c1)N(CCO)C1=C(C(=O)OC1)C2c1cccc(Br)c1 (stereo not drawn) , which is 54.4 µM

Kindly note the recorded TGI for C#Cc1ccc(-n2c(/C=C/c3ccc4ccccc4n3)nc3ncccc3c2=O)cc1 , which is 1.75 µM

Kindly note the recorded TGI for Cc1ccc2cccc(OC(=O)c3cc4c(cc3Cl)Sc3nccn3S4(=O)=O)c2n1 , which is 14.7 µM

---

Below, each entry is listed with its recorded TGI.
- Tested on: MDA-N
- TEST DESCRIPTION: NCI tumour cell line growth inhibition, 48 h
Could you give me the number in µM? Just the number is fine.

• Oc1ccc2c3c1OC1c4[nH]c5c(c4CC4(O)C(C2)N(CC2CC2)CC[C@]314)CC1(O)C2Cc3ccc(O)c4c3[C@@]1(CCN2CC1CC1)C5O4 (stereo not given in full) = 38.9

Proceed to the following item.
Kindly note the recorded TGI for O=C1/C(=C/c2ccc(O)cc2)CCc2ccccc21 , which is 57.7

---

- Tested on: HT29 colon
- TEST DESCRIPTION: NCI tumour cell line growth inhibition, 48 h
METRIC NAME: TGI

* CCN1CCN(Cc2ccc3cc(C(=O)Nc4cc(NC(=O)c5ccc6c(c5)OCCO6)ccc4F)ccc3n2)CC1 | 11.9 µM
* CCCCC/C(=N\c1nc[nH]c1C(N)=O)OCC | > 100 µM
* O=C1c2cccnc2-c2nccc3ccnc1c23 | 2.09 µM
* Cc1c(C)c2ccc(O)cc2[nH]c1=O | > 100 µM
* COc1cc2c(/C=C3/C(=O)Nc4c3ccc3ccccc43)c(Cl)[nH]c2cc1C | > 50 µM

Proceed to the following item.
Kindly note the recorded TGI for Cn1c(C2CC(C)(C)c3c2c2ccccc2n3C)cc2ccccc21 (stereo unspecified) , which is > 304 µM

---

- Test system: COLO 205 colon
- TEST DESCRIPTION: NCI tumour cell line growth inhibition, 48 h
Below, each entry is listed with its recorded TGI.

Worked examples, 5 compounds total:
- Cn1c(-c2ccccc2)c/c(=N\NS(C)(=O)=O)c2cc(S(=O)(=O)O)ccc21: > 100 µM
- CCOC(=O)C1=C(N)Oc2cc(OC)ccc2C1c1ccc(F)c(F)c1 (stereo unspecified): 8.97 µM
- Cc1cc(-c2ccc(Cl)cc2)c(C#N)c(=S)n1C1OC(CO)C(O)C(O)C1O (stereo unspecified): > 100 µM
- NNc1nc(-c2ccccn2)nc2sc3c(c12)CCCCCC3: > 100 µM
- O=C1C=CC(=O)N1CCCCCCCCCCN1C(=O)C=CC1=O: 5.62 µM

Proceed to the following item.
Kindly note the recorded TGI for CN(C)C1COC2Cc3ccccc3C1O2 (stereo unspecified) , which is > 100 µM

---

- System: HS 578T breast
- TEST DESCRIPTION: NCI tumour cell line growth inhibition, 48 h; in the data active means GI50 below about 0.43 µM; inactive means the rest
Respond using exactly one of the listed classes: YES for active, NO for inactive

• N=C(N)c1ccc(-c2ccc(-c3ccco3)o2)cc1F = NO
• C(#Cc1ccccc1C#Cc1ccccn1)c1ccc(OCCCCCCOc2ccc(C#Cc3ccccc3C#Cc3ccccn3)cc2)cc1 = NO

# input # outcome recorded in this test, key = CCCNNC(=O)c1ccc(CNC(=O)/C=C/c2ccccc2)cc1
# output YES

# input # outcome recorded in this test, key = Cc1cc(Cl)ccc1Nc1nc(C(F)(F)F)ccc1C(=O)N/N=C/c1c(Cl)cccc1Cl
# output NO

# input # outcome recorded in this test, key = COc1ccc(OC)c2c3c(ncc12)-c1cc2c(cc1C3)OCO2
# output NO

# input # outcome recorded in this test, key = CCNCCNc1cc(C2CCCC2)c(C#N)c2nc3ccccc3n12
# output NO

# input # outcome recorded in this test, key = O=C(Nc1cccc2ccccc12)c1cc2ccccc2cc1O
# output NO

---

- System: A549 NSCLC
- TEST DESCRIPTION: NCI tumour cell line growth inhibition, 48 h
Below, each entry is listed with its recorded TGI.

Worked examples, 5 compounds total:
* O=C1C=Cc2c(I)sc(I)c21 | > 100 µM
* O=C(O)c1cn(C2CC2)c2cc(N3CCN(C(=O)Nc4nc(-c5ccc(Cl)cc5)cs4)CC3)c(F)cc2c1=O | > 100 µM
* COc1cc2c(cc1OC)C(=O)/C(=C/c1ccccc1)C2 | > 100 µM
* CCOCC[P+](c1ccccc1)(c1ccccc1)c1ccccc1 | 87.8 µM
* CCC(CCCCC1CC[C@H]2CC(=O)C[C@@H]12)OC (stereo not given in full) | > 100 µM

Kindly note the recorded TGI for O=C1/C(=C/c2cccc([N+](=O)[O-])c2)N=C(c2ccccc2)N1c1ccc2c(c1)Sc1cc(N3C(=O)/C(=C/c4cccc([N+](=O)[O-])c4)N=C3c3ccccc3)ccc1N2 , which is > 100 µM

Kindly note the recorded TGI for N=c1c2ccccc2nc2oc3ccc(Cl)cc3n12 , which is 97 µM

Kindly note the recorded TGI for CCCNNC(=O)c1ccc(CNC(=O)/C=C/c2ccccc2)cc1 , which is > 100 µM

Kindly note the recorded TGI for COC1(C)Cc2c(c(C)c(O)c3c2C(=O)C=C(Cl)C3=O)O1 (stereo not given) , which is > 100 µM

Kindly note the recorded TGI for COC1=CC(=O)C2[C@H]3Cc4ccccc4[C@H]3C2(C)C1=O (stereo not given in full) , which is > 100 µM

---

Below, each entry is listed with its recorded TGI.
- Tested on: MOLT-4 leukemia
- TEST DESCRIPTION: NCI tumour cell line growth inhibition, 48 h
Could you give me the number in µM? Just the number is fine.

* O=[N+]([O-])c1ccc(C2N3CCCCC3[C@@H]3c4[nH]c5ccccc5c4CCN23)cc1 (stereo partly drawn) | 49.6
* Cc1ccc(S(=O)(=O)C2=C3C(=C(c4ccccc4)c4ccccc43)CN(S(=O)(=O)c3ccc(C)cc3)C2)cc1 | 7.9
* CO[C@H]1C[C@H](O[C@H]2CC[C@]3(C=O)[C@H]4CC[C@]5(C)[C@@H](C6=CC(=O)OC6)CC[C@]5(O)[C@@H]4CC[C@]3(O)C2)O[C@H](C)[C@H]1O[C@@H]1O[C@H](CO[C@@H]2O[C@H](CO)[C@@H](O)[C@H](O)[C@H]2O)[C@@H](O)[C@H](O)[C@H]1O | 1.07

Kindly note the recorded TGI for COc1ccc2c(c1)N(CCC1CCCCN1C)c1ccccc1S2 (stereo not drawn) , which is 17.2

---

- Tested on: CCRF-CEM leukemia
- TEST DESCRIPTION: NCI tumour cell line growth inhibition, 48 h; in the data active means GI50 below about 0.43 µM; inactive means the rest
Respond using exactly one of the listed classes: active, inactive

Past entries and their recorded results:
* COc1ccc(C2SC(C)C(=O)N2NC(=O)C(O)c2ccccc2)cc1 (stereo not given) | inactive
* COc1cccc(-c2cc(NCc3ccc4c(c3)OCO4)nc(N)n2)c1 | active
* OCCCNC(=S)Nc1ccc(-c2nc3ccccc3s2)cc1 | inactive
* Cc1cccc2c(=O)c3c(sc12)c(NCCN)nc1ccccc13 | inactive
* C#CCOc1c(OC)cc(C(=O)/C(C)=C/c2cccc(N=[N+]=[N-])c2)cc1OC | active

# input # outcome recorded in this test, key = COc1ccc(OC)c2c3c(ncc12)-c1cc2c(cc1C3)OCO2
# output inactive

# input # outcome recorded in this test, key = CN(C)CCOc1cccc(NC2=C(Cl)C(=O)C(Nc3cccc(OCCN(C)C)c3)=C(Cl)C2=O)c1
# output active

# input # outcome recorded in this test, key = N#CC(C#N)=Cc1ccc(-c2ccc(-c3nc4ccccc4s3)cc2)s1
# output inactive

# input # outcome recorded in this test, key = Cn1cc(-c2nc(-c3cn(C)c4ncccc34)cs2)c2cc(F)ccc21
# output inactive

# input # outcome recorded in this test, key = O=C1C=CC(=O)N1CCCCCCCCCCN1C(=O)C=CC1=O
# output inactive
